# targetOrSystem: Integrin alpha-4/beta-1 (Homo sapiens, UniProt P05556+P13612)
# Sequence (P05556 whole entry): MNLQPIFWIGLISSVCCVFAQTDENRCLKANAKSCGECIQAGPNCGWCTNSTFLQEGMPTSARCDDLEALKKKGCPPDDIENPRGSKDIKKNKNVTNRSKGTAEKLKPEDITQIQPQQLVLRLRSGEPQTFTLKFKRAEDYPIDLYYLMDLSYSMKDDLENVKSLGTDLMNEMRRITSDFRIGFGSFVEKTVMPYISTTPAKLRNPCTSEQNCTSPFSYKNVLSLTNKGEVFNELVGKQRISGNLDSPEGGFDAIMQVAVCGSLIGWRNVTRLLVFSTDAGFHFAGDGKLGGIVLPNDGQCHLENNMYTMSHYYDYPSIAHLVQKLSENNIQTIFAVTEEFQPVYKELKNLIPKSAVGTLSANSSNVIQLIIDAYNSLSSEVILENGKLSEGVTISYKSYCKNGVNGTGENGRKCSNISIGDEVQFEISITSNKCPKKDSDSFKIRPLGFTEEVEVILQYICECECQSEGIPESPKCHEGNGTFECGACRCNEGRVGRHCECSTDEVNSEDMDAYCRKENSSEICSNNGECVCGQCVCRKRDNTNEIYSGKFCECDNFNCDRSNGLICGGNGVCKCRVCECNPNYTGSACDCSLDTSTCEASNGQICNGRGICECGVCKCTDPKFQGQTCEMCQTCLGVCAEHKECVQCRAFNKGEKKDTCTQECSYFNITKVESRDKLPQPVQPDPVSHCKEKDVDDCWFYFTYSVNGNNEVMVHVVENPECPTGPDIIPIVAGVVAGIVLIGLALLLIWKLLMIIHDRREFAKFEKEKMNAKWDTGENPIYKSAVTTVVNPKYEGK
# Sequence (P13612 whole entry): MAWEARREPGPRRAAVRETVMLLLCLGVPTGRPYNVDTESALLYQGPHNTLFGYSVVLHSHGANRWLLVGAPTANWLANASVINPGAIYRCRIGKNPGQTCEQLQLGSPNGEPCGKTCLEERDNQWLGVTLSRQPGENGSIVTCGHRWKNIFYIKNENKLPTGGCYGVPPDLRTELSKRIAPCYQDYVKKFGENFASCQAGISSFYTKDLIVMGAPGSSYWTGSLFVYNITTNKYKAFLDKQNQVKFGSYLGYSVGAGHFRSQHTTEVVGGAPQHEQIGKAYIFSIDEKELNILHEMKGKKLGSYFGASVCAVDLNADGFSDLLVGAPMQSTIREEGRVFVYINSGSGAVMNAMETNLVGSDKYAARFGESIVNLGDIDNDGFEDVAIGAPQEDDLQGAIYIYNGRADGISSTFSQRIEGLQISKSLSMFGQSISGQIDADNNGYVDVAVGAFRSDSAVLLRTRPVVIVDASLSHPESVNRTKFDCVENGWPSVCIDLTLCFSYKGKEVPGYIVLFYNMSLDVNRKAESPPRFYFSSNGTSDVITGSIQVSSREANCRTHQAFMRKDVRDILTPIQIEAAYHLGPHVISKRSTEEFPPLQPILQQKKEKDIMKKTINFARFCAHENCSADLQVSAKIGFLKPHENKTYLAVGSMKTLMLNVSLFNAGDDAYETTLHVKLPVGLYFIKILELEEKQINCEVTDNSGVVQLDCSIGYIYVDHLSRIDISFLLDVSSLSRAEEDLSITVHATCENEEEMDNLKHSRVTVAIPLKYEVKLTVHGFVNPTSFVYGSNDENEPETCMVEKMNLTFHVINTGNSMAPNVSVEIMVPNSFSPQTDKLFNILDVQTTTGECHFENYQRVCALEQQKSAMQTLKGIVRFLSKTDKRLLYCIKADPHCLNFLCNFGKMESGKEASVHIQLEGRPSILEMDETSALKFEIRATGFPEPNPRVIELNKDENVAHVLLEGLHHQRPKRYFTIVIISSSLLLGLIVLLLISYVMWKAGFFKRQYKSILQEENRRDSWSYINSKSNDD
# procedureSummary: Displacement of [35S]-labeled ligand from VLA4 in human Jurkat cells washed with buffer containing activating Mn2+ by competitive binding assay
# Type: cell-based
endpointLabel: IC50 (nM)
Numbers only, in nM.

**Q:** Record request: IC50 value, item N#Cc1cccc(S(=O)(=O)N2C[C@H](N3CCCC(F)(F)C3)C[C@H]2C(=O)N[C@@H](Cc2ccc(NC(=O)c3c(Cl)cncc3Cl)cc2)C(=O)O)c1
**A:** 0.02

* * *

# targetOrSystem: Integrin alpha-4/beta-1 (Homo sapiens, UniProt P05556+P13612)
# procedureSummary: Inhibition of VLA4 in human whole blood
endpointLabel: pIC50
Answers are plain numbers, as −log10 of the molar value.

**Q:** What value of pIC50 has been reported for the following molecule? N#Cc1cccc(S(=O)(=O)N2C[C@H](N(CC(F)(F)F)C3CCC3)C[C@H]2C(=O)N[C@@H](Cc2ccc(NC(=O)c3c(Cl)cncc3Cl)cc2)C(=O)O)c1
**A:** 8.51

***
**Q:** // pIC50 lookup, key: N#Cc1cccc(S(=O)(=O)N2C[C@H](N3CCCC(F)(F)C3)C[C@H]2C(=O)N[C@@H](Cc2ccc(NC(=O)c3c(Cl)cncc3Cl)cc2)C(=O)O)c1
**A:** 10.15

* * *

# targetOrSystem: Integrin alpha-4/beta-1 (Homo sapiens, UniProt P05556+P13612)
# procedureSummary: Displacement of [35S]-labeled ligand from VLA4 in human Jurkat cells washed with buffer containing non activating Ca2+ and Mg2+ by competitive binding assay
# Type: cell-based
endpointLabel: pIC50
One number for each entry, as −log10 of the molar value.

**Q:** Entry N#Cc1cccc(S(=O)(=O)N2C[C@H](N3CC[C@H](F)C3)C[C@H]2C(=O)N[C@@H](Cc2ccc(NC(=O)c3c(Cl)cncc3Cl)cc2)C(=O)O)c1 has what pIC50?
**A:** 9.62

**Q:** // query pIC50 value for entry N#Cc1cccc(S(=O)(=O)N2C[C@H](N3CCCC(F)C3)C[C@H]2C(=O)N[C@@H](Cc2ccc(NC(=O)c3c(Cl)cncc3Cl)cc2)C(=O)O)c1 (stereo partly specified)
**A:** 9.68

**Q:** Which pIC50 is reported for this compound? N#Cc1cccc(S(=O)(=O)N2C[C@H](NC3CCC3)C[C@H]2C(=O)N[C@@H](Cc2ccc(NC(=O)c3c(Cl)cncc3Cl)cc2)C(=O)O)c1
**A:** 9.82

**Q:** What does the data say about its pIC50? Entry: N#Cc1cccc(S(=O)(=O)N2C[C@H](N3CCC3)C[C@H]2C(=O)N[C@@H](Cc2ccc(NC(=O)c3c(Cl)cncc3Cl)cc2)C(=O)O)c1
**A:** 9.82

**Q:** Which pIC50 is listed for N#Cc1cccc(S(=O)(=O)N2C[C@H](N3CCC(F)(F)C3)C[C@H]2C(=O)N[C@@H](Cc2ccc(NC(=O)c3c(Cl)cncc3Cl)cc2)C(=O)O)c1 ?
**A:** 10.00

More entries:
**Q:** Look up pIC50: N#Cc1cccc(S(=O)(=O)N2C[C@H](N3CCCC3)C[C@H]2C(=O)N[C@@H](Cc2ccc(NC(=O)c3c(Cl)cncc3Cl)cc2)C(=O)O)c1
**A:** 9.66

Recorded values, source ChEMBL document CHEMBL1156022.
